Every entry's value here was drawn from the RNAGym collection of RNA variant scans (doi:10.1093/molbev/msab373).

B1: Azoarcus group I ribozyme (parent)
chain: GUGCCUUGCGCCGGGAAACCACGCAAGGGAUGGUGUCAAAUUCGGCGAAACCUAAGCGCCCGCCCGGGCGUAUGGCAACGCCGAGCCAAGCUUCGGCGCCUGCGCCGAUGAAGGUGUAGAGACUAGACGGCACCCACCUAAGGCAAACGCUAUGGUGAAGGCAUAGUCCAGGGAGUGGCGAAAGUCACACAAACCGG

# Variants of: B1
# method-summary: reverse-splicing fitness (ratio to wild type); higher = more active; in vitro selection; Mg2+ level not given
So basically every entry gets a class from its reverse-splicing fitness, ranges being 0 (below 0.005), 1 (0.005 to below 0.01), 2 (0.01 or more)

mutations	class-name
A111U A120U A145U C150A C169A U176G	0
A111U A120C C169G U176G	0
C82A A111G A120U C150U C169U U176G	0
A120U A145C C169U U176G	2
A120U A145C C150A C169G U176C	0
A111G A120U A145G C150A U176G	2
A111G A120G C169G U176C	2
C82A A145G C150U C169A	2
C82G A111C C150U C169U U176C	2
A111U A120G A145G C150A C169A U176A	2
C82A A111C A145C C150U C169U U176G	1
C82G A111G A120G C169G U176A	2
C169G	2
C82A A111G A120U A145U C150U U176G	0
A111G A120C A145G C150A C169U	2
C82G A111U A120C A145U C150A	2
C82G A120U A145C C150G C169G U176G	0
C82A A111C A120C A145C C169G U176A	2
C82U A111U A145U C150A C169U U176G	1
C82G A120C A145U C150G U176A	1
A111U A120C A145G C150G C169A U176A	2
C82G A120U C150A C169U	0
A120U A145U C150G C169A	0
C82A A111C A120G A145U C150U C169U U176A	2
C82G A111G A120U A145U C150G C169U	0
C82A A111G A120C C150A C169U U176C	2
C82A A120G A145U C150G C169G U176A	1
C82G A111C A120C A145U U176G	1
C82U A111U C169G	1
A111C A120C A145U C150U U176C	2
C82A A111C A120G A145U C150U C169A	1
